Kindly supply the reported IC50 values for the records listed here.
target-entity: Cyclin-dependent kinase 2/cyclin A (Homo sapiens, UniProt P24941)
experimental-protocol: Inhibition of CDK2/cyclinA (unknown origin)
Assay type: protein-complex assay
One number for each entry, in µM.

Consider the following illustrative entries.
Query string: Report IC50 for O=Nc1cnc(Nc2cccc(CO)c2)nc1OCC1CCCCC1 please.
Result string: 0.045

Query string: Now the compound Nc1nc(N)c(-c2ccco2)c(OCC2CCCCC2)n1
Result string: 56.3

Give me IC50 for each of these compounds, listed below.
1. COc1nc(N)nc(N)c1N=O
2. COc1ccc(Nc2nc(N)c(/C=N/O)c(OCC3CCCCC3)n2)cc1
3. CSc1cccc(Nc2nc(N)c(N=O)c(OCC3CCCCC3)n2)c1
4. Nc1nc(Nc2ccc(C(=O)O)cc2)nc(OCC2CCCCC2)c1N=O

Result string:
79
8.3
0.4
0.11

Origin of the recorded values: ChEMBL document CHEMBL3045022
